Each item that follows carries a reported IC50.
Measurement target: Human immunodeficiency virus type 1 integrase (Human immunodeficiency virus 1)
Sequence (Q7ZJM1 whole entry): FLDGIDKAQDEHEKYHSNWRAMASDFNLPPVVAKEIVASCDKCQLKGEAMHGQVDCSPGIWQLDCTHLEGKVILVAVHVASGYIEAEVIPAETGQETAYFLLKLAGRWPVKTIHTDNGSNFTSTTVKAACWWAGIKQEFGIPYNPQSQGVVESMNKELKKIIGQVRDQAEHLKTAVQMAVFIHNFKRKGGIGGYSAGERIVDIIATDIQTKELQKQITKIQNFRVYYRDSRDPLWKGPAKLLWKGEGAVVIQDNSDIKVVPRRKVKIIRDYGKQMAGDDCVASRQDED
Assay text: Inhibition of wild-type HIV1 integrase strand transfer activity using [32P]-labeled linear oligonucleotide substrate by polyacrylamide gel electrophoresis
Measurement kind: IC50 (µM)

| Compound | Measurement kind | Units text | Reading qualifier | Result |
| --- | --- | --- | --- | --- |
| COC(=O)/C(O)=C/C(=O)c1ccccc1F | IC50 | µM | > | 100 |
| O=C(O)/C(O)=C/C(=O)c1ccc([N+](=O)[O-])cc1 | IC50 | µM | = | 45 |
| O=C(O)/C(O)=C/C(=O)c1ccc(C(F)(F)F)cc1 | IC50 | µM | = | 33 |
| O=C(CC(=O)c1ccc(C(F)(F)F)cc1)C(=O)N1CCN(C(=O)C(=O)CC(=O)c2ccc(C(F)(F)F)cc2)CC1 | IC50 | µM | = | 25 |
| O=C(CC(=O)c1cccc(OCc2ccccc2)c1)C(=O)OC1CCN(C(=O)C(=O)CC(=O)c2cccc(OCc3ccccc3)c2)CC1 | IC50 | µM | = | 3 |
| COC(=O)/C(O)=C/C(=O)c1cccc(N(Cc2ccccc2)Cc2ccccc2)c1 | IC50 | µM | > | 100 |
| COC(=O)/C(O)=C/C(=O)c1ccc(F)cc1 | IC50 | µM | > | 100 |
| O=C(O)/C(O)=C/C(=O)c1ccccc1 | IC50 | µM | = | 24.2 |
| O=C(CC(=O)c1ccc(F)cc1)C(=O)N1CCN(C(=O)C(=O)CC(=O)c2ccc(F)cc2)CC1 | IC50 | µM | = | 29 |
| COc1cccc(C(=O)/C=C(\O)C(=O)O)c1 | IC50 | µM | = | 27 |
| O=C(CC(=O)c1ccccc1F)C(=O)NC1CCC(NC(=O)C(=O)CC(=O)c2ccccc2F)CC1 (stereo unspecified) | IC50 | µM | = | 55 |
| O=C(O)/C(O)=C/C(=O)c1ccccc1Cl | IC50 | µM | = | 17 |
| CC(C)(C)OC(=O)N1CCC(NC(=O)/C(O)=C/C(=O)c2ccc(F)cc2)CC1 | IC50 | µM | = | 100 |
| COC(=O)/C(O)=C/C(=O)c1ccc(OC)c(OCc2ccccc2)c1 | IC50 | µM | = | 16 |
| O=C(CC(=O)c1ccccc1Cl)C(=O)N1CCN(C(=O)C(=O)CC(=O)c2ccccc2Cl)CC1 | IC50 | µM | > | 100 |
| COC(=O)/C(O)=C/C(=O)c1cccc(Cc2ccccc2F)c1 | IC50 | µM | = | 0.6 |
| CCCCCC12CCC(C(=O)Nc3cccc(C(=O)CC(=O)C(=O)O)c3)(CC1)CC2 | IC50 | µM | = | 14 |
| O=C(O)/C(O)=C/C(=O)c1cccc(OCc2ccccc2)c1 | IC50 | µM | < | 0.4 |
| COc1cccc(C(=O)CC(=O)C(=O)N2CCN(C(=O)C(=O)CC(=O)c3cccc(OC)c3)CC2)c1 | IC50 | µM | = | 26 |
| COC(=O)/C(O)=C/C(=O)c1cccc(OCc2ccccc2)c1 | IC50 | µM | = | 14 |
| O=C(O)/C(O)=C/C(=O)c1ccccc1F | IC50 | µM | = | 58 |
